Tested on: Hymenobacter 1 (Hymenobacter glaciei)
Experiment: relative growth (AUC of 72 h growth curve relative to DMSO control, dAUC) (ratio); higher = more growth (less inhibition), active = hit call of the paper
Conditions: 20 µM
EXPERIMENTAL READOUT: relative growth

compound="O=C(NC(=O)c1c(F)cccc1F)Nc1ccc(OC(F)(F)C(F)OC(F)(F)F)c(Cl)c1 (configuration not stated)" assay_system="Hymenobacter 1 (Hymenobacter glaciei)" numeric_value=0.944
compound="CCCC(Cn1cncn1)c1ccc(Cl)cc1Cl (configuration not stated)" assay_system="Hymenobacter 1 (Hymenobacter glaciei)" numeric_value=0.877
compound=CC(C)(C)[C@@H](O)[C@H](Oc1ccc(Cl)cc1)n1cncn1 assay_system="Hymenobacter 1 (Hymenobacter glaciei)" numeric_value=1.05
compound=C[C@@H]1[C@@H](c2ccc(Cl)cc2)SC(=O)N1C(=O)NC1CCCCC1 assay_system="Hymenobacter 1 (Hymenobacter glaciei)" numeric_value=1.12
compound=Cc1cccc2sc3nncn3c12 assay_system="Hymenobacter 1 (Hymenobacter glaciei)" numeric_value=0.996
compound=CCCCCCCCCCCCNC(=N)N assay_system="Hymenobacter 1 (Hymenobacter glaciei)" numeric_value=0.00418
compound=O=C(O)CNCP(=O)(O)O assay_system="Hymenobacter 1 (Hymenobacter glaciei)" numeric_value=1.11
compound=CON(C)C(=O)Nc1ccc(Cl)c(Cl)c1 assay_system="Hymenobacter 1 (Hymenobacter glaciei)" numeric_value=0.961
compound=COc1cc(OC)nc(NC(=O)NS(=O)(=O)c2ncccc2C(=O)N(C)C)n1 assay_system="Hymenobacter 1 (Hymenobacter glaciei)" numeric_value=1.16
compound=O=[N+]([O-])/N=C1\NCCN1Cc1ccc(Cl)nc1 assay_system="Hymenobacter 1 (Hymenobacter glaciei)" numeric_value=1.14
compound=CNC(=O)/C=C(\C)OP(=O)(OC)OC assay_system="Hymenobacter 1 (Hymenobacter glaciei)" numeric_value=0.933
compound=Fc1ccc(Oc2ccnc3cc(Cl)cc(Cl)c23)cc1 assay_system="Hymenobacter 1 (Hymenobacter glaciei)" numeric_value=1.13
compound=CCNc1nc(Cl)nc(NC(C)C)n1 assay_system="Hymenobacter 1 (Hymenobacter glaciei)" numeric_value=1.06
compound="CC1(C)C(C=C(Cl)Cl)C1C(=O)OCc1cccc(Oc2ccccc2)c1 (configuration not stated)" assay_system="Hymenobacter 1 (Hymenobacter glaciei)" numeric_value=0.989
compound=CCN(CC)c1nc(C)cc(OP(=S)(OC)OC)n1 assay_system="Hymenobacter 1 (Hymenobacter glaciei)" numeric_value=1
compound=CN/C(=N\[N+](=O)[O-])NCc1cnc(Cl)s1 assay_system="Hymenobacter 1 (Hymenobacter glaciei)" numeric_value=0.958
compound=N#Cc1c(Cl)c(Cl)c(Cl)c(C#N)c1Cl assay_system="Hymenobacter 1 (Hymenobacter glaciei)" numeric_value=0.352

---

Entries annotated with measured relative growth
Test system: Serratia 1 (Serratia sp. 2015-2462-01)
Experiment: relative growth (AUC of 72 h growth curve relative to DMSO control, dAUC) (ratio); higher = more growth (less inhibition), active = hit call of the paper
Conditions: 20 µM
EXPERIMENTAL READOUT: relative growth

molecule=C#CCN1C(=O)COc2cc(F)c(N3C(=O)C4=C(CCCC4)C3=O)cc21 numeric_value=0.938
molecule=CC(C)NC(=O)N1CC(=O)N(c2cc(Cl)cc(Cl)c2)C1=O numeric_value=0.982
molecule=CNC(=O)ON=C(C)SC numeric_value=0.936
molecule=CNC(=O)c1cc(C#N)cc(C)c1NC(=O)c1cc(Br)nn1-c1ncccc1Cl numeric_value=0.982
molecule=CCC(CC)Nc1c([N+](=O)[O-])cc(C)c(C)c1[N+](=O)[O-] numeric_value=0.929
molecule=O=C(Nc1ccc(F)cc1F)c1cccnc1Oc1cccc(C(F)(F)F)c1 numeric_value=1.02
molecule=O=C(Nc1ccccc1-c1ccc(Cl)cc1)c1cccnc1Cl numeric_value=0.971
molecule="COCC(=O)N(c1c(C)cccc1C)C(C)C(=O)OC (stereo not given)" numeric_value=0.994
molecule=CCOCN(C(=O)CCl)c1c(C)cccc1CC numeric_value=0.95
molecule="O=C(NC(=O)c1c(F)cccc1F)Nc1ccc(OC(F)(F)C(F)OC(F)(F)F)c(Cl)c1 (stereo not given)" numeric_value=0.995
molecule="CC1(C)[C@H](/C=C(\\Cl)C(F)(F)F)[C@@H]1C(=O)OC(C#N)c1cccc(Oc2ccccc2)c1 (stereo not given in full)" numeric_value=1.01
molecule="CC(C1CC1)C(O)(Cn1cncn1)c1ccc(Cl)cc1 (stereo not given)" numeric_value=1
molecule=CCOc1ccc(C(C)(C)COCc2cccc(Oc3ccccc3)c2)cc1 numeric_value=0.956
molecule=COC(=O)N(C(=O)N1CO[C@@]2(C(=O)OC)Cc3cc(Cl)ccc3C2=N1)c1ccc(OC(F)(F)F)cc1 numeric_value=0.967
molecule=Nc1c(Cl)c(F)nc(OCC(=O)O)c1Cl numeric_value=0.996
molecule=CCCCN(CCCC)SN(C)C(=O)Oc1cccc2c1OC(C)(C)C2 numeric_value=0.977
molecule=COC(=O)c1ccccc1S(=O)(=O)NC(=O)Nc1nc(C)nc(OC)n1 numeric_value=1.11
molecule=Cc1cc(C(F)(C(F)(F)F)C(F)(F)F)ccc1NC(=O)c1cccc(I)c1C(=O)NC(C)(C)CS(C)(=O)=O numeric_value=1.19
molecule="OC(Cc1ccccc1Cl)(Cn1nc[nH]c1=S)C1(Cl)CC1 (stereo not given)" numeric_value=1.05
molecule=Cc1nc(N(C)C)nc(OC(=O)N(C)C)c1C numeric_value=0.992

---

Catalogue of relative growth values
Tested on: Paenibacillus 1 (Paenibacillus castaneae)
Assay: relative growth (AUC of 72 h growth curve relative to DMSO control, dAUC) (ratio); higher = more growth (less inhibition), active = hit call of the paper
Details: 20 µM
EXPERIMENTAL READOUT: relative growth

compound=O=C(O)c1nc(Cl)ccc1Cl assay_system="Paenibacillus 1 (Paenibacillus castaneae)" numeric_value=0.973
compound=Cc1ccc(/N=C/N(C)/C=N/c2ccc(C)cc2C)c(C)c1 assay_system="Paenibacillus 1 (Paenibacillus castaneae)" numeric_value=0.969
compound="CC(C)(C)C(O)(CCc1ccc(Cl)cc1)Cn1cncn1 (stereo not drawn)" assay_system="Paenibacillus 1 (Paenibacillus castaneae)" numeric_value=0.808

---

Test system: Arthrobacter 1 (Arthrobacter humicola)
Assay: relative growth (AUC of 72 h growth curve relative to DMSO control, dAUC) (ratio); higher = more growth (less inhibition), active = hit call of the paper
Conditions: 20 µM
EXPERIMENTAL READOUT: relative growth

compound=CC(C)(C)c1ccc(CSc2cnn(C(C)(C)C)c(=O)c2Cl)cc1 result="1.02 (inactive)"
compound=CCNC(=O)NC(=O)/C(C#N)=N/OC result="0.901 (inactive)"
compound=COC(=O)NC(=S)Nc1ccccc1NC(=S)NC(=O)OC result="0.923 (inactive)"
compound=COC(=O)N(C(=O)N1CO[C@@]2(C(=O)OC)Cc3cc(Cl)ccc3C2=N1)c1ccc(OC(F)(F)F)cc1 result="1 (inactive)"
compound=CCCCc1c(C)nc(NCC)nc1OS(=O)(=O)N(C)C result="0.911 (inactive)"
compound=CN/C(=N\[N+](=O)[O-])NCc1cnc(Cl)s1 result="0.983 (inactive)"
compound=CCC(CC)Nc1c([N+](=O)[O-])cc(C)c(C)c1[N+](=O)[O-] result="0.901 (inactive)"
compound=Cc1cc(C2CC2)nc(Nc2ccccc2)n1 result="0.989 (inactive)"
compound="O=C(NC(=O)c1c(F)cccc1F)Nc1ccc(OC(F)(F)C(F)OC(F)(F)F)c(Cl)c1 (stereo unspecified)" result="0.843 (inactive)"
compound=N#CCNC(=O)c1cnccc1C(F)(F)F result="0.965 (inactive)"
compound=N#Cc1sc2c(=O)c3ccccc3c(=O)c=2sc1C#N result="0.649 (active)"

---

Test system: Arthrobacter 2 (Arthrobacter humicola)
Test: relative growth (AUC of 72 h growth curve relative to DMSO control, dAUC) (ratio); higher = more growth (less inhibition), active = hit call of the paper
Settings: 20 µM
EXPERIMENTAL READOUT: relative growth

record_smiles=COC(=O)N(C(=O)N1CO[C@@]2(C(=O)OC)Cc3cc(Cl)ccc3C2=N1)c1ccc(OC(F)(F)F)cc1 assay_system="Arthrobacter 2 (Arthrobacter humicola)" numeric_value=0.972
record_smiles=CC1(C(=O)Nc2ccc(O)c(Cl)c2Cl)CCCCC1 assay_system="Arthrobacter 2 (Arthrobacter humicola)" numeric_value=1.02
record_smiles=CO/C=C(/C(=O)OC)c1ccccc1Oc1cc(Oc2ccccc2C#N)ncn1 assay_system="Arthrobacter 2 (Arthrobacter humicola)" numeric_value=1
record_smiles=COC(=O)NC(=S)Nc1ccccc1NC(=S)NC(=O)OC assay_system="Arthrobacter 2 (Arthrobacter humicola)" numeric_value=0.973

---

Tested on: Arthrobacter 2 (Arthrobacter humicola)
Assay: relative growth (AUC of 72 h growth curve relative to DMSO control, dAUC) (ratio); higher = more growth (less inhibition), active = hit call of the paper
Conditions: 20 µM
EXPERIMENTAL READOUT: relative growth

compound="OC(Cc1ccccc1Cl)(Cn1nc[nH]c1=S)C1(Cl)CC1 (centres undefined)" numeric_value=1.04
compound="C#CCOc1ccc(CCNC(=O)C(OCC#C)c2ccc(Cl)cc2)cc1OC (centres undefined)" numeric_value=0.935
compound="CCSC(C)CC1CC(=O)C(/C(CC)=N/OC/C=C/Cl)=C(O)C1 (mixture of isomers)" numeric_value=0.987
compound="O=C1C2CC=CCC2C(=O)N1SC(Cl)(Cl)Cl (centres undefined)" numeric_value=0.769
